Tested on: Saccharomyces cerevisiae growth inhibition, permissive control
ASSAY_METHOD_TEXT: yeast lifespan-shortening chemical project counter-assay, dose-response inhibition of growth under permissive conditions (AID 850);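 note: growth read as optical density after one day of incubation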
Activity calls are given as the source filed them. The rule behind the calls is not given here.
Hi there, use one of these labels in your reply, thanks! active, inactive

Study these solved cases before continuing.
[[record]]
compound = "Cc1cccc(C(=O)O/N=C/c2c(N3CCOCC3)n(C)c3ccccc23)c1"
category = "active"

[[record]]
compound = "COc1ccc(C(=O)N/N=C/c2sc3ccccc3c2O)cc1"
category = "inactive"

[[record]]
compound = "CN1CSC(=S)N(C)C1"
category = "active"


*Q* Answer briefly: the call reported for O=[N+]([O-])c1ccc(N/N=C2/CCCCC2c2ccccn2)cc1 (stereo not given) in this assay.
*A* active

*Q* Could you please tell me the result logged for CCC(C)N1CC23C=CC(O2)C(C(=O)OC)C3C1=O (stereo not given) in this assay?
*A* inactive

*Q* # outcome recorded in this test, key = `O=C(COc1ccccc1)N1CCN=C1SCc1cccnc1`
*A* inactive

*Q* Per the records of this test, what outcome belongs to `CCOC(=O)/C(=N\Nc1ccccc1Cl)N1CCN(Cc2ccccc2)CC1` ?
*A* active

*Q* What did this assay record as the result for `COc1ccccc1NC(=O)Cc1noc(CSc2cccc[n+]2[O-])n1` ?
*A* active

*Q* Please share the test call associated with `NC(=O)c1sc2nc(-c3ccco3)ccc2c1N` .
*A* inactive

*Q* What call does the record list for `Nc1nc2sc3c(c2c(=O)s1)CCCC3` ?
*A* inactive

----------
ASSAY_METHOD_TEXT: yeast lifespan-shortening chemical project counter-assay, dose-response inhibition of growth under permissive conditions (AID 850);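 note: growth read as optical density after one day of incubation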
CONDITION_SUMMARY: Saccharomyces cerevisiae growth inhibition, permissive control; measured here: maximum growth inhibition; at 0.781 µM; stronger effect = higher value
Kindly supply the reported inhibition values for the records listed here.
Mention the unit after the number when you answer.

Answered examples (6):
[[record]]
molecule = "CC(NC(=O)Nc1ccc(Cl)cc1)C(c1cccs1)N1CCOCC1 (stereo unspecified)"
endpoint_name = "inhibition"
obs_value = "8.7%"

[[record]]
molecule = "CCn1c(=O)c(C(=O)Nc2nc3ccccc3[nH]2)c(O)c2ccccc21"
endpoint_name = "inhibition"
obs_value = "24.2%"

[[record]]
molecule = "Cc1ccc(-c2cc(-c3ccccc3Cl)[nH]n2)c(O)c1"
endpoint_name = "inhibition"
obs_value = "16.4%"

[[record]]
molecule = "C=C(C)COc1ccc(-c2[nH]ncc2-c2ccccc2OC)c(O)c1"
endpoint_name = "inhibition"
obs_value = "23%"

[[record]]
molecule = "COc1ccc(OCc2nnc3n2N=C(c2ccc(OC)cc2)CS3)cc1"
endpoint_name = "inhibition"
obs_value = "20.9%"

[[record]]
molecule = "Cc1cc(-c2n[nH]c(=S)n2/N=C/c2cc([N+](=O)[O-])ccc2Cl)n[nH]1"
endpoint_name = "inhibition"
obs_value = "-1.78%"


List the reported inhibition of each molecule below.
1. Cc1ccc(S(=O)(=O)Nc2ccc(SC(F)F)cc2)c(C)c1
2. CC1CCCC2(C1)NC(=S)c1c(sc3c1CCCC3)N2 (stereo unspecified)
3. Cc1cc([N+](=O)[O-])ccc1-c1ccc(C2Nc3ccccc3C(=O)N2O)o1 (stereo unspecified)
4. O=C(/C(=N/N=C/c1ccc(O)c(O)c1O)c1ccccc1)c1ccccc1
5. CCOC(=O)CNC(=O)CSc1nnc(-c2ccco2)n1Cc1ccco1

*A*
21.4%
10.2%
3.97%
5.74%
14.2%
